experiment: qHTS assay for small molecule agonists of the p53 signaling pathway (AID 651631); details: HCT-116 p53RE-bla reporter, beta-lactamase FRET ratio, 16 h; series mostly up to 73.3 µM; also: nearly all actives have a fitted effect of over 15% in size
Inconclusive results are not listed. Activity calls are given as the source filed them. Calls follow the shape of the full dose curve.
API: response.call in T for active, F for inactive

Each compound tested received a call. Report the one for O=[N+]([O-])c1cc(I)c(O)c(I)c1 .
T

Per the assay record, what outcome was assigned to COc1ccccc1[N+](=O)[O-] ?
F

Query: recorded result category for CCc1cc(OC)c(C[C@@H](C)N)cc1OC in this test
F

// outcome(item) with item = O=C1CN(O)C(c2ccccc2)=c2cc(Cl)ccc2=N1
F

For O=C1CN=C(c2ccccc2)c2cc(Cl)ccc2N1 , what call appears in the results of this test?
F

Record request — test call for CCCCc1ccc(C(=O)O)nc1
F

What classification did O=C(C[C@@H]1NCCC[C@H]1O)Cn1cnc2cc(Br)c(Cl)cc2c1=O end up with in this test?
F

Dear colleague, could you share the recorded outcome for CN1C(=O)CC(=O)N(c2ccccc2)c2cc(Cl)ccc21 when you have a moment?
F

Per the records of this test, what outcome belongs to C=CC(=O)OCCCC ?
F

Which result was noted for this compound in the test: COc1ccc(OC)c([C@@H](O)[C@H](C)N)c1
F

Could you please tell me the result logged for CCC(C)(S(=O)(=O)CC)S(=O)(=O)CC in this assay?
F

// param item: NCC(O)c1cccc(O)c1 (stereo unspecified) ; yields the recorded call
F

Returns: the outcome recorded for O=C1Nc2ccc(Cl)cc2C(c2ccccc2Cl)=NC1O (stereo unspecified) in this assay.
F

Kindly provide the recorded test outcome for the following compound: CN1CSC(=S)N(C)C1
F

// return assay outcome for [H+].[H+].[Hg+2].[O-]B([O-])[O-].[c-]1ccccc1
T

What did the test return for CC(=O)OC1CN2CCC1CC2 (stereo unspecified) ?
F

What did this assay record as the result for CCN1C[C@]2(COC)[C@H](O)C[C@H](OC)[C@@]34[C@@H]5C[C@@]6(O)[C@H](OC(=O)c7ccccc7)[C@@H]5[C@@](OC(C)=O)([C@@H]([C@H](OC)[C@H]23)[C@@H]14)[C@@H](O)[C@@H]6OC ?
F

Which outcome was assigned to Nc1cccc(C(F)(F)F)c1 in this test?
F

GET /call?item= CC(=O)OCC(=O)[C@H]1CC[C@H]2[C@@H]3CC[C@H]4C[C@H](O)CC[C@]4(C)[C@H]3C(=O)C[C@]12C returns the recorded outcome of this test.
F

// outcome(item) with item = O=Nc1ccc(Nc2ccccc2)cc1
T

Returns: the outcome recorded for Cc1ccc([N+](=O)[O-])cc1N in this assay.
F

---

assay: qHTS assay to identify small molecule agonists of H2AX - cell viability counter screen (AID 1224847); details: CHO-K1 viability, CellTiter-Glo luminescence, 3 h; series mostly up to 154 µM; also: nearly all actives have a fitted effect of over 30% in size; also: potency is read from the fitted curve at half-maximal effect
Results filed as inconclusive are left out. Calls of active or inactive are those of the source. Calls follow the shape of the full dose curve.
quantity name: Potency

Take a look at these entries with their results.
| chem smiles | endpoint value |
| --- | --- |
| OCC(c1ccc(Cl)cc1)c1ccc(Cl)cc1 | 89.8 µM (active) |
| COc1cc(OC)c(OC)cc1C=O | inactive |
| O=S(=O)(C(Cl)(Cl)Cl)C(Cl)(Cl)Cl | 89.8 µM (active) |
| Cc1ccc(N(SC(F)(Cl)Cl)S(=O)(=O)N(C)C)cc1 | 89.8 µM (active) |
| COc1ccc(C(c2ccc(OC)cc2)C(Cl)(Cl)Cl)cc1 | 50.2 µM (active) |

Fill in: Potency of CCN(CC)C(=O)Cl is ___
inactive

Which Potency value is on record for CN1CSC(=S)N(C)C1 ?
56.4 µM (active)
